# target.or.system: Cathepsin D (Homo sapiens)
# Sequence (P07339 65-162 limits assumed): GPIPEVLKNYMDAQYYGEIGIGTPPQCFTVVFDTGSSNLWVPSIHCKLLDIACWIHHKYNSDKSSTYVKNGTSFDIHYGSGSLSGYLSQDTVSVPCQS
# Sequence (P07339 169-412 limits assumed): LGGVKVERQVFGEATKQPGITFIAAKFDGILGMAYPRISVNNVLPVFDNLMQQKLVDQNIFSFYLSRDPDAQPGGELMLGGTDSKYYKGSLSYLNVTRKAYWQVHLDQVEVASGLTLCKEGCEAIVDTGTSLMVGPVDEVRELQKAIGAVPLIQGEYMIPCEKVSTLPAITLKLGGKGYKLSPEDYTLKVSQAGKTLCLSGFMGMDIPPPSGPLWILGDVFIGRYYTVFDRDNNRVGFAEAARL
observable: pIC50
# pIC50: negative log10 of molar concentration; output just the value

Look up pIC50: CC(C)CN(C[C@@H](O)[C@H](Cc1ccccc1)NC(=O)O[C@H]1CCOC1)S(=O)(=O)c1ccc(N)cc1
4.82

----------
# System: Human immunodeficiency virus 1
# protocol.details: Antiviral activity against wild type HIV1 NL4-3 infected in MT4 cells after 6 days by MTT assay
# Assay type: functional, organism-based
# condition.label: Human immunodeficiency virus 1, NL4-3, MT4, 144 h
observable: EC50

Recorded EC50, per entry:
{"columns": ["item.smiles", "obs.value"],
 "data": [
  ["COC(=O)N[C@H](C(=O)N[C@@H](Cc1ccccc1)[C@@H](O)CN(Cc1ccc(-c2ccccn2)cc1)NC(=O)[C@@H](NC(=O)OC)C(C)(C)C)C(C)(C)C", "4 nM"],
  ["Cc1cccc(C)c1OCC(=O)N[C@@H](Cc1ccccc1)[C@@H](O)C[C@H](Cc1ccccc1)NC(=O)[C@H](C(C)C)N1CCCNC1=O", "19 nM"],
  ["COC(=O)N[C@H](C(=O)NCCCC[C@@H](CO)N(CC(C)C)S(=O)(=O)c1ccc(N)cc1)C(c1ccccc1)c1ccccc1", "16 nM"],
  ["CC(C)(C)NC(=O)[C@@H]1C[C@@H]2CCCC[C@@H]2CN1C[C@@H](O)[C@H](Cc1ccccc1)NC(=O)[C@H](CC(N)=O)NC(=O)c1ccc2ccccc2n1", "12 nM"],
  ["CC(C)(C)NC(=O)[C@@H]1CN(Cc2cccnc2)CCN1C[C@@H](O)C[C@@H](Cc1ccccc1)C(=O)N[C@H]1c2ccccc2C[C@H]1O", "67 nM"],
  ["Cc1c(O)cccc1C(=O)N[C@@H](CSc1ccccc1)[C@H](O)CN1C[C@H]2CCCC[C@H]2C[C@H]1C(=O)NC(C)(C)C", "29 nM"]
]}

GET /values?readout=EC50&system=Human immunodeficiency virus 1&item= CC(C)CN(C[C@@H](O)[C@H](Cc1ccccc1)NC(=O)O[C@H]1CCOC1)S(=O)(=O)c1ccc(N)cc1
51 nM

Quick check: EC50 on Human immunodeficiency virus 1, item CC(C)c1nc(CN(C)C(=O)N[C@H](C(=O)N[C@@H](Cc2ccccc2)C[C@H](O)[C@H](Cc2ccccc2)NC(=O)OCc2cncs2)C(C)C)cs1 ?
61 nM

----------
# protocol.details: Selectivity index, ratio of CC50 for human MT4 cells to EC50 for HIV1 NL4-3
# Type: toxicity, cell-based
# condition.label: read-out: Ratio CC50/EC50
observable: selectivity ratio
Give the figure by itself; no unit, no explanation.

{"columns": ["item.smiles", "obs.value"],
 "data": [
  ["COC(=O)N[C@H](C(=O)NCCCC[C@@H](CO)N(CC(C)C)S(=O)(=O)c1ccc(N)cc1)C(c1ccccc1)c1ccccc1", 2310],
  ["Cc1c(O)cccc1C(=O)N[C@@H](CSc1ccccc1)[C@H](O)CN1C[C@H]2CCCC[C@H]2C[C@H]1C(=O)NC(C)(C)C", 276]
]}

# get_value(readout='selectivity ratio', item= COC(=O)N[C@H](C(=O)N[C@@H](Cc1ccccc1)[C@@H](O)CN(Cc1ccc(-c2ccccn2)cc1)NC(=O)[C@@H](NC(=O)OC)C(C)(C)C)C(C)(C)C )
17800

----------
Recorded CC50 at 144 h, one value per entry.
# protocol.details: Cytotoxicity against human MT4 cells after 6 days by MTT assay
# Format: cell-based
Give the value in µM but do not write µM after it.

{"columns": ["item.smiles", "CC50 at 144 h [µM]"],
 "data": [
  ["Cc1cccc(C)c1OCC(=O)N[C@@H](Cc1ccccc1)[C@@H](O)C[C@H](Cc1ccccc1)NC(=O)[C@H](C(C)C)N1CCCNC1=O", 28],
  ["CC(C)(C)NC(=O)[C@@H]1C[C@@H]2CCCC[C@@H]2CN1C[C@@H](O)[C@H](Cc1ccccc1)NC(=O)[C@H](CC(N)=O)NC(=O)c1ccc2ccccc2n1", 19]
]}

Entry COC(=O)N[C@H](C(=O)N[C@@H](Cc1ccccc1)[C@@H](O)CN(Cc1ccc(-c2ccccn2)cc1)NC(=O)[C@@H](NC(=O)OC)C(C)(C)C)C(C)(C)C : reported CC50 at 144 h = ?
71

----------
What follows is a record of Ki for Protease (Human immunodeficiency virus 1).
Record the value in pM, omitting the unit from your answer.

{"columns": ["item.smiles", "target.or.system", "Ki, pM"],
 "data": [
  ["Cc1c(O)cccc1C(=O)N[C@@H](CSc1ccccc1)[C@H](O)CN1C[C@H]2CCCC[C@H]2C[C@H]1C(=O)NC(C)(C)C", "Protease (Human immunodeficiency virus 1)", 306],
  ["CC(C)CN(C[C@@H](O)[C@H](Cc1ccccc1)NC(=O)O[C@H]1CCOC1)S(=O)(=O)c1ccc(N)cc1", "Protease (Human immunodeficiency virus 1)", 117],
  ["COC(=O)N[C@H](C(=O)NCCCC[C@@H](CO)N(CC(C)C)S(=O)(=O)c1ccc(N)cc1)C(c1ccccc1)c1ccccc1", "Protease (Human immunodeficiency virus 1)", 36]
]}

Now consider a different molecule.
Request: Ki, test system Protease (Human immunodeficiency virus 1), entry COC(=O)N[C@H](C(=O)N[C@@H](Cc1ccccc1)[C@@H](O)CN(Cc1ccc(-c2ccccn2)cc1)NC(=O)[C@@H](NC(=O)OC)C(C)(C)C)C(C)(C)C
39

This collection of values is drawn from ChEMBL document CHEMBL1137017.
